meta.source: patent US20240287154A1

Experiment: in vitro
Conditions: mouse, plasma
Non-standard residues stand in square brackets, D forms with d. Residues, ends and D or L forms follow the SMILES beside them. Phe(4-Br) = N[C@@H](Cc1ccc(Br)cc1)C(=O)O; Nle = CCCC[C@H](N)C(=O)O
property label: remaining at 5 min, 1 µM (%)
Numbers only here, please. The scale is %.

Some entries whose results are on file:
CCCC[C@H](NC(=O)[C@@H](NC(=O)[C@@H](N)Cc1ccc(O)cc1)C(C)C)C(=O)N[C@H](C)C(=O)N[C@@H](Cc1c[nH]cn1)C(=O)N[C@@H](Cc1ccccc1)C(=O)N[C@@H](CCCNC(=N)N)C(=O)N[C@H](Cc1c[nH]c2ccccc12)C(=O)N[C@@H](CC(=O)O)C(=O)N[C@H](CCCNC(=N)N)C(=O)N[C@@H](Cc1ccccc1)C(=O)NCC(=O)O [CTX-1126] (H-YV[Nle][dA]HFR[dW]D[dR]FG-OH)
11.7
CCCC[C@H](NC(=O)[C@@H](NC(=O)[C@@H](N)Cc1ccc(O)cc1)C(C)C)C(=O)N[C@H](C)C(=O)N[C@@H](Cc1c[nH]cn1)C(=O)N[C@@H](Cc1ccccc1)C(=O)N[C@@H](CCCNC(=N)N)C(=O)N[C@H](Cc1c[nH]c2ccccc12)C(=O)N[C@@H](CC(=O)O)C(=O)N[C@@H](CCCNC(=N)N)C(=O)N[C@H](Cc1ccccc1)C(=O)NCC(=O)O [CTX-1127] (H-YV[Nle][dA]HFR[dW]DR[dF]G-OH)
6.71

Consider the additional compound presented here.
Prompt: Using known records, supply remaining at 5 min, 1 µM for CCCC[C@H](NC(=O)[C@@H](NC(=O)[C@@H](N)Cc1ccc(O)cc1)C(C)C)C(=O)N[C@H](C)C(=O)N[C@@H](Cc1c[nH]cn1)C(=O)N[C@@H](Cc1ccc(Br)cc1)C(=O)N[C@@H](CCCNC(=N)N)C(=O)N[C@H](Cc1c[nH]c2ccccc12)C(=O)N[C@@H](CC(=O)O)C(=O)N[C@@H](CCCNC(=N)N)C(=O)N[C@@H](Cc1ccccc1)C(=O)NCC(=O)O [CTX-2120] (H-YV[Nle][dA]H[Phe(4-Br)]R[dW]DRFG-OH)
Completion: 17.9

----------
MC3R selectivity (relative to MC4R) reference
Target: human MC4R (Homo sapiens)
Sequence (P32245 whole entry): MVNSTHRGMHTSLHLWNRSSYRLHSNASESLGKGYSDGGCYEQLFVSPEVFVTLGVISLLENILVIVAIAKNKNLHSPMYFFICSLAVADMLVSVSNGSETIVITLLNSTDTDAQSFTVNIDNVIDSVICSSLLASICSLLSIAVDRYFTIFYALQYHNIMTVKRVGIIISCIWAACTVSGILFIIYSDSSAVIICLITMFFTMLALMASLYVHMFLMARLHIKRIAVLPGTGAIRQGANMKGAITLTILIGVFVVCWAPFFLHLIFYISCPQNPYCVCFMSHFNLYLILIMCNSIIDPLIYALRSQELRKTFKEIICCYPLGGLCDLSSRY
Assay: Intracellular cAMP levels in live cells, MC3R selectivity relative to MC4R
Assay type: cell-based
Conditions: cAMP assays in human MC3R and human MC4R stable cell lines
Non-standard residues stand in square brackets, D forms with d. Residues, ends and D or L forms follow the SMILES beside them. Phe(4-Cl) = N[C@@H](Cc1ccc(Cl)cc1)C(=O)O; Nle = CCCC[C@H](N)C(=O)O; dNMeA = CN[C@H](C)C(=O)O; Aib = CC(C)(N)C(=O)O

Some entries whose results are on file:
CCCC[C@H](NC(C)=O)C(=O)NC(C)(C)C(=O)N[C@@H](Cc1c[nH]cn1)C(=O)N[C@@H](Cc1ccccc1)C(=O)N[C@@H](CCCNC(=N)N)C(=O)N[C@H](Cc1c[nH]c2ccccc12)C(=O)N[C@@H](CC(=O)O)C(=O)N[C@@H](CCCNC(=N)N)C(=O)N[C@@H](Cc1ccccc1)C(=O)NCC(=O)O [CTX-1143] (Ac-[Nle][Aib]HFR[dW]DRFG-OH)
3544
CCCC[C@H](NC(C)=O)C(=O)N[C@H](C)C(=O)N[C@@H](Cc1c[nH]cn1)C(=O)N[C@@H](Cc1ccc(Cl)cc1)C(=O)N[C@@H](CCCNC(=N)N)C(=O)N[C@H](Cc1c[nH]c2ccccc12)C(=O)N[C@@H](CC(=O)O)C(=O)N[C@@H](CCCNC(=N)N)C(=O)N[C@@H](Cc1ccccc1)C(=O)NCC(=O)O [CTX-1166] (Ac-[Nle][dA]H[Phe(4-Cl)]R[dW]DRFG-OH)
3099

Consider the additional compound presented here.
Prompt: Find MC3R selectivity (relative to MC4R) for CCCC[C@H](NC(C)=O)C(=O)N(C)[C@H](C)C(=O)N[C@@H](Cc1c[nH]cn1)C(=O)N[C@@H](Cc1ccccc1)C(=O)N[C@@H](CCCNC(=N)N)C(=O)N[C@H](Cc1c[nH]c2ccccc12)C(=O)N[C@@H](CC(=O)O)C(=O)N[C@@H](CCCNC(=N)N)C(=O)N[C@@H](Cc1ccccc1)C(=O)NCC(=O)O [CTX-1183] (Ac-[Nle][dNMeA]HFR[dW]DRFG-OH) on human MC4R (Homo sapiens) and write it down.
Completion: 515
